Where these numbers come from: patent US7495104B2

# TARGET OR TEST SYSTEM: Bek (Homo sapiens)
# Sequence (P21802 431-767 limits assumed): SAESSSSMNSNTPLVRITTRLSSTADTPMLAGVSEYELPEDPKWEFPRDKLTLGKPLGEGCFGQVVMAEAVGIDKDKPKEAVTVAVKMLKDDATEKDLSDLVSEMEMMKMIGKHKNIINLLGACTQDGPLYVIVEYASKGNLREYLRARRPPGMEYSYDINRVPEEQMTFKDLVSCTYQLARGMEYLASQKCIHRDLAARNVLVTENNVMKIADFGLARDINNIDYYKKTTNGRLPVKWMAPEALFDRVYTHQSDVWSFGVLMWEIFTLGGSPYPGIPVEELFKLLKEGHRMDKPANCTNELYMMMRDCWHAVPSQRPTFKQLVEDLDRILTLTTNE
# EXPERIMENT NOTES: Inhibitory activity against Bek-autophosphorylation using ELISA method in OCUM-2MD3 cells
# ASSAY CONTEXT: 1 hr with compound, read-out: IC50 (concentration necessary for inhibiting 50% of Bek-phosphorylation)
pIC50: −log10 of the molar value.
MEASURED ENDPOINT: pIC50

• COc1cc2c(Oc3ccc(NC(=O)NCCC(C)(C)C)cc3F)ccnc2cc1OCCN1CCC(CCO)CC1 [Compound 297] = 7.37
• COc1cc2nccc(Oc3ccc(Nc4nn(-c5ccccc5)c(=O)o4)cc3)c2cc1OC [Compound 76] = 5.12
• COc1cc2c(Oc3ccc(Nc4ccc(C(C)(C)C)cc4)cc3Cl)ccnc2cc1OCCN1CCC(O)CC1 [Compound 307] = 6.42

[1] COc1cc2nccc(Oc3ccc(NC(=O)NCCC(C)(C)C)c(C)c3C)c2cc1OC [Compound 141]
[2] COc1cc2c(Oc3ccc(Nc4ccc(C(C)(C)C)cc4)cc3Cl)ccnc2cc1OCCN1CCC(CCO)CC1 [Compound 313]
Task: Lab note: record which item had the higher pIC50, 1 or 2 . Answer format: the label of the selected item.
Result: 1
(1: 7.23, 2: 6.43)
